Molecular target: T1, Human EphA2 (ephrin receptor A2) (human, UniProt P29317 24-976)
T1 construct: Endogenous protein in frozen human tumor tissue and tumor adjacent tissue, not a recombinant construct
T1 sequence (P29317 24-976 limits assumed): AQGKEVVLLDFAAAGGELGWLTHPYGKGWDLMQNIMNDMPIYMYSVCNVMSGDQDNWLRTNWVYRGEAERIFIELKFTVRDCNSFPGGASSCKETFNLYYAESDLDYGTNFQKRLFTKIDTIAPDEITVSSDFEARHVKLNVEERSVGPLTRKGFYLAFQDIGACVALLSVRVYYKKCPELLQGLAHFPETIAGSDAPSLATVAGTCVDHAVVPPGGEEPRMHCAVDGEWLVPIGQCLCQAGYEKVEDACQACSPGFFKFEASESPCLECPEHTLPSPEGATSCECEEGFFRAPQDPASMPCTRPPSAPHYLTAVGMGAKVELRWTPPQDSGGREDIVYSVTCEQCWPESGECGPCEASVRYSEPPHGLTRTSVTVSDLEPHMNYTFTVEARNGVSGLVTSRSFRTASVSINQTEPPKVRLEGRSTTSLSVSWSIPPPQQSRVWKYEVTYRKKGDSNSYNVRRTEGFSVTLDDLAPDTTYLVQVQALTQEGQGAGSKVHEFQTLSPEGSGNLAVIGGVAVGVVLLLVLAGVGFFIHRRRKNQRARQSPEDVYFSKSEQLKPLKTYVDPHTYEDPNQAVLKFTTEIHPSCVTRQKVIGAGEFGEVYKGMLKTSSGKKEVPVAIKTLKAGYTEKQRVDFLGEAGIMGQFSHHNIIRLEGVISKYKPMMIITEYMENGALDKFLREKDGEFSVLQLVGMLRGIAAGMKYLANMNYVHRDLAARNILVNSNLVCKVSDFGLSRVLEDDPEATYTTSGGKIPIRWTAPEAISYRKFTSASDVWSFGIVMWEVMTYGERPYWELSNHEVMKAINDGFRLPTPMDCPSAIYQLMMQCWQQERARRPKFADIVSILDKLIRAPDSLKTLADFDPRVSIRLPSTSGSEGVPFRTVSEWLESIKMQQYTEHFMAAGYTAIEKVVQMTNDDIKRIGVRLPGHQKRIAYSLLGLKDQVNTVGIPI
Assay: IHC/IF score on frozen human tumor tissue, UCEC-papillary

binder: AB-009813 (antibody, mouse IgG2a, V domains shown) VH: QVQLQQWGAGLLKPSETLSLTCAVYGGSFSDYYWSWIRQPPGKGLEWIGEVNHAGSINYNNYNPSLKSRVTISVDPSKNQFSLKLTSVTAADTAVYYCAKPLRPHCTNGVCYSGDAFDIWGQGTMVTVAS VL: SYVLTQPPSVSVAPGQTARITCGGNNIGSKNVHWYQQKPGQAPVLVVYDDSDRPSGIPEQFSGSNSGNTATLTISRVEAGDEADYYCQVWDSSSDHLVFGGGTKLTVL
IHC score: 2
